Field: IC50. Provide a value for each of the compounds that follow.
Test system: PC-3
Assay: Cytotoxicity against human PC3 cells after 48 hrs by luminometric analysis
Format: functional, cell-based
Details: PC-3, 48 h
Give bare numbers, in µM.

CC(=O)OC[C@]12Oc3ccc(-c4ccc5c(c4O)C(=O)C4=C(O)C[C@@H](C)[C@@H](OC(C)=O)[C@@]4(CO)O5)c(O)c3C(=O)C1=C(O)C[C@@H](C)[C@H]2OC(C)=O : 34
CC(=O)OC[C@]12Oc3cccc(O)c3C(=O)C1=C(O)C[C@@H](C)[C@H]2OC(C)=O (relative stereo) : 1380
CC(=O)O[C@@H]1[C@H](C)CC(O)=C2C(=O)c3c(ccc(-c4ccc5c(c4O)C(=O)C4=C(O)C[C@@H](C)[C@@H](OC(C)=O)[C@@]4(CO)O5)c3O)O[C@@]21CO : 100
CC(=O)OC[C@]12Oc3c(-c4ccc5c(c4O)C(=O)C4=C(O)C[C@@H](C)[C@@H](OC(C)=O)[C@@]4(CO)O5)ccc(O)c3C(=O)C1=C(O)C[C@@H](C)[C@H]2OC(C)=O (relative stereo) : 122

// below: IC50 requested for another compound
Under PC-3: IC50 value of "CC(=O)OC[C@]12Oc3ccc(-c4ccc5c(c4O)C(=O)C4=C(O)C[C@@H](C)[C@@H](OC(C)=O)[C@@]4(COC(C)=O)O5)c(O)c3C(=O)C1=C(O)C[C@@H](C)[C@H]2OC(C)=O" ? 121
